- Tested on: Spodoptera litura
- method.description: Antifeedant activity in Spodoptera litura third-instar larvae assessed as increase in feeding deterrence after 24 hrs by leaf disk method
- Assay type: functional
For each of the molecules below, state its ED50.
Hi! Could you send only the number? It should be in microg/cm2, unit omitted.

Problem: Give ED50 (Spodoptera litura) of the following molecule: C[C@@H]1C[C@H]([C@H](O)C(C)(C)O)O[C@H]2OC(=O)[C@@]3(C)[C@@H]4CC[C@H]5C(C)(C)C(=O)CC[C@@]56C[C@@]46CC[C@]3(C)[C@H]21
Result: 0.67

Problem: Give ED50 (Spodoptera litura) of the following molecule: CC1(C)CC[C@]2(C)CC[C@]3(C)C(=CC[C@@H]4[C@@]5(C)CC[C@H](O)C(C)(C)[C@@H]5CC[C@]43C)[C@@H]2C1 [beta-AMYRIN]
Result: 28.69

Problem: Give ED50 (Spodoptera litura) of the following molecule: CC1(C)C[C@@H](O)[C@]2(C)CC[C@]3(C)C(=CC[C@@H]4[C@@]5(C)CC[C@H](O)[C@](C)(CO)[C@@H]5CC[C@]43C)[C@@H]2C1 [SOYASAPOGENOL B]
Result: 5.22

Problem: Give ED50 (Spodoptera litura) of the following molecule: C[C@@H]1C[C@H]([C@H](O)C(C)(C)O)O[C@H]2O[C@H](O)[C@@]3(C)[C@@H]4CC[C@H]5C(C)(C)C(=O)CC[C@@]56C[C@@]46CC[C@]3(C)[C@H]21
Result: 1.195

Problem: Give ED50 (Spodoptera litura) of the following molecule: CC(C)(O)[C@@H]1CC[C@](C)([C@H]2[C@@H](O)C[C@@]3(C)[C@@H]4C[C@H](O)[C@H]5C(C)(C)[C@@H](O[C@@H]6OC[C@@H](O)[C@H](O)[C@H]6O)CC[C@@]56C[C@@]46CC[C@]23C)O1
Result: 15.05

* * *

- Tested on: Spodoptera litura
- method.description: Antifeedant activity in Spodoptera litura third-instar larvae assessed as increase in feeding deterrence after 24 hrs by leaf disk method
- Format: functional
For each of the molecules below, state its ED50.
Hi! Could you send only the number? It should be in microg/cm2, unit omitted.

Problem: Give ED50 (Spodoptera litura) of the following molecule: C[C@@H]1C[C@H]([C@H](O)C(C)(C)O)O[C@H]2O[C@H](O)[C@@]3(C)[C@@H]4CC[C@H]5C(C)(C)[C@@H](O)CC[C@@]56C[C@@]46CC[C@]3(C)[C@H]21
Result: 0.59

Problem: Give ED50 (Spodoptera litura) of the following molecule: CC(=O)O[C@H]1[C@H](O[C@H]2CC[C@]34C[C@]35CC[C@]3(C)[C@@H]([C@@]6(C)CC[C@@H](C(C)(C)O)O6)[C@@H](O)C[C@@]3(C)[C@@H]5C[C@H](O)[C@H]4C2(C)C)OC[C@@H](O)[C@@H]1O
Result: 1.689

Problem: Give ED50 (Spodoptera litura) of the following molecule: C[C@@H]1C[C@H]([C@H](O)C(C)(C)O)O[C@H]2O[C@H](O)[C@@]3(C)[C@@H]4CC[C@H]5C(C)(C)[C@@H](O[C@@H]6OC[C@@H](O)[C@H](O)[C@H]6O)CC[C@@]56C[C@@]46CC[C@]3(C)[C@H]21
Result: 3.61

Problem: Give ED50 (Spodoptera litura) of the following molecule: CC(C)(O)[C@@H]1CC[C@](C)([C@H]2[C@@H](O)C[C@@]3(C)[C@@H]4C[C@H](O)[C@H]5C(C)(C)[C@@H](O)CC[C@@]56C[C@@]46CC[C@]23C)O1
Result: 11.96
